For each record, write down the corresponding Tmax.
- assay-protocol: PK study in SD rats
- Type: in vivo
- measurement-conditions: rat, plasma, po; SD male rats; p.o. (10 mg/kg); mean ± SD (n = 3)

Query: Look at this molecule and give its reported Tmax. OC[C@H]1CN(CC(O)COC(Cn2c3ccccc3c3cc(F)ccc32)Cn2c3ccc(F)cc3c3cc(F)ccc32)CCN1 (stereo partly shown)
Reply: 2.7 h

Query: Look at this molecule and give its reported Tmax. CC(C)NCC(O)COC(Cn1c2ccc(F)cc2c2cc(F)ccc21)Cn1c2ccc(F)cc2c2cc(F)ccc21 (stereo not shown)
Reply: 7.3 h

Query: Look at this molecule and give its reported Tmax. CC(C)NCC(O)COC(Cn1c2ccccc2c2cc(F)ccc21)Cn1c2ccccc2c2cc(F)ccc21 (stereo not shown)
Reply: 6.7 h

Query: Look at this molecule and give its reported Tmax. OC(CNCCc1c[nH]c2ccccc12)COC(Cn1c2ccccc2c2ccccc21)Cn1c2ccccc2c2ccccc21 (stereo not shown) [DC_517, reference compound]
Reply: 6 h

* * *

- Test system: human DNMT1
- assay-protocol: ELISA EpiQuik DNA methyltransferase (DNMT) activity/inhibitor assay
- Assay type: biochemical
- measurement-conditions: 100 μM compound; 200 nM purified DNMT1; EpiQuik kit
recorded-endpoint: Inh% at 100 μM (%)
Value expressed in %; do not type the unit.

Query: Look at this compound and give its reported Inh% at 100 μM. Oc1ccc(CCNCC(O)Cn2c3ccccc3c3cc(F)ccc32)cc1 (centres unmarked) [WK-3]
Reply: 79

Query: Look at this compound and give its reported Inh% at 100 μM. CCCCOCCCNCC(O)Cn1c2ccc(F)cc2c2cc(F)ccc21 (centres unmarked) [WK-17]
Reply: 79

Query: Look at this compound and give its reported Inh% at 100 μM. OC(CNCCc1ccc(F)cc1)Cn1c2ccc(F)cc2c2cc(F)ccc21 (centres unmarked) [WK-14]
Reply: 84

Query: Look at this compound and give its reported Inh% at 100 μM. OC(CNCc1ccc(F)cc1)Cn1c2ccccc2c2cc(F)ccc21 (centres unmarked) [WK-9]
Reply: 53

Query: Look at this compound and give its reported Inh% at 100 μM. CC(CO)NCC(O)Cn1c2ccc(F)cc2c2cc(F)ccc21 (centres unmarked) [WK-19]
Reply: 93

Query: Look at this compound and give its reported Inh% at 100 μM. OC(CNCCc1c[nH]c2ccccc12)Cn1c2ccccc2c2ccccc21 (centres unmarked) [DC_05, reference compound]
Reply: 88

Query: Look at this compound and give its reported Inh% at 100 μM. OC[C@H]1CN(CC(O)COC(Cn2c3ccccc3c3cc(F)ccc32)Cn2c3ccc(F)cc3c3cc(F)ccc32)CCN1 (some centres unmarked) [WK-27]
Reply: 100

Query: Look at this compound and give its reported Inh% at 100 μM. CC(O)CNCC(O)Cn1c2ccc(F)cc2c2cc(F)ccc21 (centres unmarked) [WK-18]
Reply: 87

Query: Look at this compound and give its reported Inh% at 100 μM. CC(C)(C)OC(=O)N1CCN(CC(O)COC(Cn2c3ccccc3c3cc(F)ccc32)Cn2c3ccc(F)cc3c3cc(F)ccc32)C[C@@H]1CO (some centres unmarked) [WK-26]
Reply: −16

Query: Look at this compound and give its reported Inh% at 100 μM. OC(CNCCc1ccccc1)Cn1c2ccc(F)cc2c2cc(F)ccc21 (centres unmarked) [WK-15]
Reply: 82

Query: Look at this compound and give its reported Inh% at 100 μM. OC(CNCCc1c[nH]c2ccccc12)COC(Cn1c2ccccc2c2ccccc21)Cn1c2ccccc2c2ccccc21 (centres unmarked) [DC_517, reference compound]
Reply: 98

Query: Look at this compound and give its reported Inh% at 100 μM. COc1ccccc1OCCNCC(O)Cn1c2ccccc2c2cc(F)ccc21 (centres unmarked) [WK-4]
Reply: 60

Query: Look at this compound and give its reported Inh% at 100 μM. COc1ccccc1OCCNCC(O)Cn1c2ccc(F)cc2c2cc(F)ccc21 (centres unmarked) [WK-16]
Reply: 46

Query: Look at this compound and give its reported Inh% at 100 μM. CC(C)(C)NCC(O)COC(Cn1c2ccccc2c2cc(F)ccc21)Cn1c2ccccc2c2cc(F)ccc21 (centres unmarked) [WK-25]
Reply: 100

Query: Look at this compound and give its reported Inh% at 100 μM. Oc1ccc(CCNCC(O)Cn2c3ccc(F)cc3c3cc(F)ccc32)cc1 (centres unmarked) [WK-13]
Reply: 90

Query: Look at this compound and give its reported Inh% at 100 μM. CCCCOCCCNCC(O)COC(Cn1c2ccccc2c2cc(F)ccc21)Cn1c2ccc(F)cc2c2cc(F)ccc21 (centres unmarked) [WK-29]
Reply: 80

Query: Look at this compound and give its reported Inh% at 100 μM. OC(CNCCc1c[nH]c2ccccc12)Cn1c2ccccc2c2cc(F)ccc21 (centres unmarked) [WK-1]
Reply: 100

Query: Look at this compound and give its reported Inh% at 100 μM. C[C@@H](CNCC(O)Cn1c2ccccc2c2cc(F)ccc21)c1ccccc1 (some centres unmarked) [WK-8]
Reply: 58

Query: Look at this compound and give its reported Inh% at 100 μM. OC(CNCCc1c[nH]c2ccccc12)Cn1c2ccc(F)cc2c2cc(F)ccc21 (centres unmarked) [WK-12]
Reply: 94

Query: Look at this compound and give its reported Inh% at 100 μM. OC(CNCCc1c[nH]c2ccccc12)COC(Cn1c2ccccc2c2cc(F)ccc21)Cn1c2ccc(F)cc2c2cc(F)ccc21 (centres unmarked) [WK-28]
Reply: 91

Query: Look at this compound and give its reported Inh% at 100 μM. OC(CNCCc1c[nH]c2ccccc12)Cn1c2ccccc2c2cccnc21 (centres unmarked) [WK-21]
Reply: 34

Query: Look at this compound and give its reported Inh% at 100 μM. CC(C)NCC(O)COC(Cn1c2ccc(F)cc2c2cc(F)ccc21)Cn1c2ccc(F)cc2c2cc(F)ccc21 (centres unmarked) [WK-22]
Reply: 100

Query: Look at this compound and give its reported Inh% at 100 μM. CCCCOCCCNCC(O)Cn1c2ccccc2c2cc(F)ccc21 (centres unmarked) [WK-5]
Reply: 65

Query: Look at this compound and give its reported Inh% at 100 μM. OC[C@@H]1CN(CC(O)Cn2c3ccccc3c3cc(F)ccc32)CCN1 (some centres unmarked) [WK-11]
Reply: 50

Query: Look at this compound and give its reported Inh% at 100 μM. OC(CNC1CC1)COC(Cn1c2ccccc2c2cc(F)ccc21)Cn1c2ccccc2c2cc(F)ccc21 (centres unmarked) [WK-24]
Reply: 2.6

Query: Look at this compound and give its reported Inh% at 100 μM. CC(C)(C)OC(=O)N1CCN(CC(O)Cn2c3ccccc3c3cc(F)ccc32)C[C@H]1CO (some centres unmarked) [WK-10]
Reply: −9.0

* * *

- Test system: human DNMT1
- assay-protocol: ELISA EpiQuik DNA methyltransferase (DNMT) activity/inhibitor assay
- Type: biochemical
- measurement-conditions: 50 μM compound; 200 nM purified DNMT1; EpiQuik kit
recorded-endpoint: Inh% at 50 μM (%)
Value expressed in %; do not type the unit.

Query: Look at this compound and give its reported Inh% at 50 μM. OC(CNCCc1ccc(F)cc1)Cn1c2ccc(F)cc2c2cc(F)ccc21 (stereo not drawn) [WK-14]
Reply: 79

Query: Look at this compound and give its reported Inh% at 50 μM. CC(C)NCC(O)COC(Cn1c2ccccc2c2cc(F)ccc21)Cn1c2ccccc2c2cc(F)ccc21 (stereo not drawn) [WK-23]
Reply: 99

Query: Look at this compound and give its reported Inh% at 50 μM. CCCCOCCCNCC(O)Cn1c2ccc(F)cc2c2cc(F)ccc21 (stereo not drawn) [WK-17]
Reply: 73

Query: Look at this compound and give its reported Inh% at 50 μM. CC(C)NCC(O)COC(Cn1c2ccc(F)cc2c2cc(F)ccc21)Cn1c2ccc(F)cc2c2cc(F)ccc21 (stereo not drawn) [WK-22]
Reply: 99

Query: Look at this compound and give its reported Inh% at 50 μM. Oc1ccc(CCNCC(O)Cn2c3ccccc3c3cc(F)ccc32)cc1 (stereo not drawn) [WK-3]
Reply: 71

Query: Look at this compound and give its reported Inh% at 50 μM. CC(CO)NCC(O)Cn1c2ccc(F)cc2c2cc(F)ccc21 (stereo not drawn) [WK-19]
Reply: 78

Query: Look at this compound and give its reported Inh% at 50 μM. OC(CNCCc1c[nH]c2ccccc12)Cn1c2ccccc2c2cc(F)ccc21 (stereo not drawn) [WK-1]
Reply: 82

Query: Look at this compound and give its reported Inh% at 50 μM. CC(C)(C)NCC(O)COC(Cn1c2ccccc2c2cc(F)ccc21)Cn1c2ccccc2c2cc(F)ccc21 (stereo not drawn) [WK-25]
Reply: 100

Query: Look at this compound and give its reported Inh% at 50 μM. OC(CNCCc1ccccc1)Cn1c2ccc(F)cc2c2cc(F)ccc21 (stereo not drawn) [WK-15]
Reply: 75
